Measurement Protocol: NCI Yeast Anticancer Drug Screen. Data for the cln2 rad14 strain (AID 165);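 also: 0% = growth equal to vehicle treated cultures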
Applied Conditions: S. cerevisiae cln2 rad14 strain, hits give high values; at 50.0 µM unless noted
The panel holds about 79,000 compounds, 15% with a hit somewhere; the sample as a whole holds those more often.
# growth inhibition listing for each entry below
Supply the numeric figure in %, leaving out any unit text.

Inquiry: Given the compound `CC1(C)CNC[C@]2(C)OCCCO[C@@]3(C)CNCC(C)(C)NC(=O)[C@](C)(CNCC(C)(C)NC3=O)OCCCO[C@](C)(CNCC(C)(C)NC2=O)C(=O)N1` , what is its reported growth inhibition?
Reply text: 0.5

Inquiry: Next compound: `CC(=O)NNc1nc(C)c(C(/C=C/c2ccc(Cl)cc2)=N/NC(=O)C[N+](C)(C)C)s1`
Reply text: 21.8

Inquiry: Next compound: COc1ccc(C(c2ccc(OC)cc2)N2C(=O)CCC2C(=O)O)cc1 (stereo unspecified)
Reply text: 17.1

Inquiry: Next compound: `O=C(Cc1nc2ccccc2o1)C(=O)Nc1cccc(Cl)c1`
Reply text: -42.2

Inquiry: Next compound: CN(C)C(=O)C(c1ccccc1)C(c1ccccc1)N(C)C=O (stereo unspecified)
Reply text: -3.3

Inquiry: Next compound: `COc1ccc(Nc2nc3ccccc3nc2-c2cccs2)cc1OC`
Reply text: 9.3

Inquiry: Next compound: `Fc1cccc(C(Nc2nncs2)Nc2nncs2)c1F`
Reply text: -1.2

Inquiry: Next compound: `CN(C)c1ccc(/C=C2\C(=O)/C(=C\c3ccc(N(C)C)cc3)c3ccccc32)cc1`
Reply text: -12.5

Inquiry: Next compound: NC(=O)C1CC2(c3ccccn3)c3ccccc3C1c1ccccc12 (stereo unspecified)
Reply text: 4.2

Inquiry: Next compound: COc1cccc2c1C(=O)c1c(O)c3c(c(O)c1C2=O)C[C@@](O)(C(=O)CO)CC3OC1CC(O)C(O)C(C)O1 (stereo partly specified)
Reply text: 28.8

Inquiry: Next compound: `CCO/C=C(\C)CC1([N+](=O)[O-])C(=O)c2ccccc2C1=O`
Reply text: -3.75

Every entry's value here was drawn from PubChem BioAssay (NCI).
